# protocolText: in vitro
# conditionLabel: chlorocebus sabaeus, Vero cells
# Description: Cytotoxicity against African green monkey Vero cells 72 hrs by CellTiter-Glo assay
propertyMeasured: CC50 at 72 h

Query: CC50 at 72 h; subject: `O=C(Cn1ccnc1[N+](=O)[O-])NCc1ccccc1` > 500 µM

###

# protocolText: in vitro
# conditionLabel: mouse, RAW264.7 cells
# Description: Cytotoxicity against mouse RAW264.7 cells assessed as reduction in cell viability after 48 hrs by MTT assay
propertyMeasured: CC50 at 48 h
Returns: string containing the numeric result and its unit.

[[record]]
molecule = "C[C@@H]1[C@H](O)[C@@H](C)/C=C/C=C/C=C/C=C/C=C/C=C/C=C/[C@H](O[C@@H]2O[C@H](C)[C@@H](O)[C@H](N)[C@@H]2O)C[C@@H]2O[C@](O)(C[C@@H](O)C[C@@H](O)[C@H](O)CC[C@@H](O)C[C@@H](O)CC(=O)O[C@H]1C)C[C@H](O)[C@H]2C(=O)O [AMPHOTERICIN B]"
result = "1 µM"


API: the following record is the query input.
Query: CC50 at 48 h; subject: O=C(Cn1ccnc1[N+](=O)[O-])NCc1ccccc1 [BENZNIDAZOLE] 138 µM
